B1: KRT13 (parent)
chain: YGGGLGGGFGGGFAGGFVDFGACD

variants of: B1; assay: protein stability index of a GFP-peptide fusion (GPS, HEK-293T) (PSI 1-6); higher = more stable; details: c terminus: a fixed tail appended;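 further: lentivirally expressed fusions sorted by FACS into six bins by GFP to DsRed ratio, PSI derived from sequencing read proportions per bin multiplied by bin number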
Quick list: protein stability index per entry.
QUANTITY KIND: protein stability index

# MUT, QUANTITY KIND, ENDPOINT RESULT
rows = [
    ("F9N", "protein stability index", 2),
    ("V18E", "protein stability index", 1.78),
    ("G8A", "protein stability index", 1.93),
    ("F17I", "protein stability index", 1.23),
    ("G11N", "protein stability index", 2.43),
    ("A14H", "protein stability index", 3.03),
    ("D24H", "protein stability index", 1.49),
    ("G8S", "protein stability index", 2.72),
    ("G21M", "protein stability index", 2.21),
    ("F20G", "protein stability index", 1.75),
    ("G7Y", "protein stability index", 2.36),
    ("G16L", "protein stability index", 4.03),
    ("G4R", "protein stability index", 2.02),
    ("Y1R", "protein stability index", 2.76),
    ("G3W", "protein stability index", 1.18),
    ("G3Q", "protein stability index", 2.5),
    ("A14S", "protein stability index", 1.86),
    ("G12L", "protein stability index", 2.25),
    ("G16A", "protein stability index", 1.81),
    ("G3M", "protein stability index", 2.51),
    ("G3A", "protein stability index", 1.77),
    ("A14K", "protein stability index", 1.82),
]
